# System: plasma membrane NADH oxidase
# Procedure text: Spectrophotometric NADH oxidase assay, rat liver plasma membranes (normal cells)
# Format: biochemical
# Assay setup: plasma membranes from rat liver, normal cells; read-out: ED50 for inhibition of NADH oxidase activity
pIC50: −log10 of the molar value.
Parameter measured: pIC50

Qu. Entry COc1cccc2c1C(=O)c1c(O)c3c(c(O)c1C2=O)C[C@@](O)(C(=O)CO)C[C@@H]3O[C@H]1C[C@H](N)[C@H](O)[C@H](C)O1 [adriamycin] has what pIC50?
Ans. ~5.15
